# EC50 values compiled below
Tested on: L5178Y
Assay: Cytotoxicity against mouse L5178Y cells by MTT assay
Type: functional, cell-based
Quick note: give the figure in µg/mL, leave out the unit.

Some compounds with recorded EC50:
COC(=O)[C@H](C)[C@H]1CC[C@@](C)(CCC2=C(C)CCCC2(C)C)OO1 [NUAPAPUIN A METHYL ESTER] :: 0.76
CC1=C(CC[C@]2(C)CC[C@H]([C@@H](C)C(=O)O)OO2)[C@@]2(C)CCCC(C)(C)[C@@H]2CC1=O [DIACARPEROXIDE F] :: 0.06

Next compound, please.
*Q* Return reported EC50; argument: CCCC(O)CCC(C)(O)CC/C=C(\C)CCC1=C(C)CCCC1(C)C (configuration not stated) [DIACARDIOL A]
*A* 4.8

====

Assay: Toxicity in Artemia salina assessed as mortality at 10 ug/ml after 48 hrs
Format: organism-based
Details: in vivo, read-out: Activity
Quick reference: mortality at 48 h, 10 ug/ml of the listed items.

// worked examples, mortality at 48 h, 10 ug/ml included
C=C1CCCC(C)(C)C1(O)CC/C(C)=C/CC[C@]1(C)CC[C@H]([C@@H](C)C(=O)OC)OO1 (some centres undefined) [EPIMUQUBILIN B] :: 60%
COC(=O)[C@H](C)[C@H]1CC[C@@](C)(CCC2=C(C)C(=O)C[C@@H]3C(C)(C)CCC[C@@]23C)OO1 [DIACARPEROXIDE G] :: 60%
COC(=O)[C@@H](C)[C@@H]1CC[C@](C)(CCC(=O)C(C)(C)CCCC(C)=O)OO1 [DIACARPEROXIDE B] :: 55%
CCCC(O)CCC(C)(O)CC/C=C(\C)CCC1=C(C)CCCC1(C)C (centres undefined) :: 40%
COC(=O)[C@H](C)[C@@H]1CC[C@@](C)(CCC2=C(C)CCCC2(C)C)OO1 :: 65%
COC(=O)[C@H](C)[C@H]1CC[C@@](C)(CCC2=C(C)C(=O)CCC2(C)C)OO1 [DIACARPEROXIDE A] :: 55%
COC(=O)[C@H](C)[C@@H]1CC[C@@](C)(CCC(=O)C(C)(C)CCCC(C)=O)OO1 [DIACARPEROXIDE C] :: 55%
CC1=C(CC/C(C)=C/CC[C@@]2(C)CC[C@@H]([C@H](C)C(=O)O)OO2)C(C)(C)CCC1 [EPIMUQUBILIN A] :: 50%

Now examine the next entry.
*Q* Please give the measured mortality at 48 h, 10 ug/ml for this compound: COC(=O)[C@H](C)[C@H]1CC[C@@](C)(CCC2=C(C)CCCC2(C)C)OO1
*A* 100%

====

Tested on: HeLa
Test: Cytotoxicity against human HeLa cells by MTT assay
Assay type: functional, cell-based
Mark Met only for EC50 values smaller than 1 µg/mL; exact matches and larger values are Not met.

Past entries and their recorded results:
COC(=O)[C@H](C)[C@H]1CC[C@@](C)(CCC2=C(C)CCCC2(C)C)OO1 :: Not met
CC1=C(CC[C@]2(C)CC[C@H]([C@@H](C)C(=O)O)OO2)[C@@]2(C)CCCC(C)(C)[C@@H]2CC1=O [DIACARPEROXIDE F] :: Met
COC(=O)[C@H](C)[C@H]1CC[C@@](C)(CCC2=C(C)C(=O)C[C@@H]3C(C)(C)CCC[C@@]23C)OO1 [DIACARPEROXIDE G] :: Not met
CC1=C(CC[C@]2(C)CC[C@H]([C@@H](C)C(=O)O)OO2)[C@]2(C)CCCC(C)(C)[C@H]2CC1 [DIACARPEROXIDE D] :: Met
CCCC(O)CCC(C)(O)CC/C=C(\C)CCC1=C(C)CCCC1(C)C (configuration not stated) :: Not met

Then this molecule:
*Q* Hello, is EC50 of the following molecule strictly smaller than 1 µg/mL? CC1=C(CC/C(C)=C/CC[C@@]2(C)CC[C@@H]([C@H](C)C(=O)O)OO2)C(C)(C)CCC1 [EPIMUQUBILIN A]
*A* Not met

====

Tested on: PC-12
Experiment: Cytotoxicity against rat PC12 cells by MTT assay
Type: functional, cell-based
Quick reference: EC50 of the listed items.

COC(=O)[C@H](C)[C@H]1CC[C@@](C)(CCC2=C(C)C(=O)C[C@@H]3C(C)(C)CCC[C@@]23C)OO1 [DIACARPEROXIDE G] :: > 10 µg/mL
CC1=C(CC/C(C)=C/CC[C@@]2(C)CC[C@@H]([C@H](C)C(=O)O)OO2)C(C)(C)CCC1 [EPIMUQUBILIN A] :: > 10 µg/mL

The record that follows has no EC50 shown yet.
*Q* Need EC50 of CCCC(O)CCC(C)(O)CC/C=C(\C)CCC1=C(C)CCCC1(C)C (stereo not drawn) [DIACARDIOL A] , thanks.
*A* > 10 µg/mL

====

Test system: L5178Y
Assay: Cytotoxicity against mouse L5178Y cells by MTT assay
Format: functional, cell-based
METRIC: EC50

These solved cases illustrate the format of a correct answer.
COC(=O)[C@H](C)[C@@H]1CC[C@@](C)(CCC(=O)C(C)(C)CCCC(C)=O)OO1 [DIACARPEROXIDE C] :: > 10 µg/mL
COC(=O)[C@H](C)[C@H]1CC[C@@](C)(CCC2=C(C)C(=O)CCC2(C)C)OO1 [DIACARPEROXIDE A] :: > 10 µg/mL
C=C1CCCC(C)(C)C1(O)CC/C(C)=C/CC[C@]1(C)CC[C@H]([C@@H](C)C(=O)OC)OO1 (some centres undefined) [EPIMUQUBILIN B] :: < 0.1 µg/mL

Could you now look at the following molecule, please?
*Q* Requested field: EC50. Item: CC1=C(CC[C@]2(C)CC[C@H]([C@@H](C)C(=O)O)OO2)[C@]2(C)CCCC(C)(C)[C@H]2CC1 [DIACARPEROXIDE D]
*A* < 0.1 µg/mL

Values were extracted from ChEMBL document CHEMBL1156600.
